target: Lethal factor protease (Bacillus anthracis)
Sequence (P15917 34-809 limits assumed): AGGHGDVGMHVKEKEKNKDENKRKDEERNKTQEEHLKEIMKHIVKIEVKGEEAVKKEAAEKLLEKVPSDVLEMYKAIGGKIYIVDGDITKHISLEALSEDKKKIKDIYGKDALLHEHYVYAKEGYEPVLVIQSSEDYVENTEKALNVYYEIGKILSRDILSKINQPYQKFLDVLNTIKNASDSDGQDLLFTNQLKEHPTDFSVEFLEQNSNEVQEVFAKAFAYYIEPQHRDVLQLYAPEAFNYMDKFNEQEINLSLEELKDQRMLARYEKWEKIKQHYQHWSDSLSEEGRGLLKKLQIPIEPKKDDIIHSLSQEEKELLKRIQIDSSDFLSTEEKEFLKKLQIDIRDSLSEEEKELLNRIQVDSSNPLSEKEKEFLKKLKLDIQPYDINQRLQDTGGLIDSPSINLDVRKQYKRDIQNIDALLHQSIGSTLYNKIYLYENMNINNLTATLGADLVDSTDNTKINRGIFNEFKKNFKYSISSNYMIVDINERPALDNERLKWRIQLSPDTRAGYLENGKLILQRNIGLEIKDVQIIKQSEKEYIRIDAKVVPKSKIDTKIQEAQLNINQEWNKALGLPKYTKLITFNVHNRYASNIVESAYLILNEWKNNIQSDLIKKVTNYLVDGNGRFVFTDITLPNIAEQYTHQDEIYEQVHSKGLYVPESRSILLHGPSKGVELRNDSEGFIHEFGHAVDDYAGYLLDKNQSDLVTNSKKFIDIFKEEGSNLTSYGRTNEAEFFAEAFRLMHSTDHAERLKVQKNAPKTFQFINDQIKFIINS
MEASURED_PARAMETER: pKi
Note on units: pKi is unitless, being -log10 of a concentration expressed in mol/L.

>>> readout_number("Cc1cc(CCCN(C)CC[C@@H](Oc2ccc(F)c(C)c2)C(=O)NO)ccc1F")
5.95
>>> readout_number("Cc1cc(COCCCC[C@@H](Oc2cc(C)c(F)c(C)c2)C(=O)NO)ccc1F")
5.52
>>> readout_number("Cc1cc(O[C@H](CCCCNCc2cccc(-c3ccc(F)cc3)c2)C(=O)NO)ccc1F")
6.89

Exercise: What value of pKi has been reported for the following compound? `O=C(COc1ccc(F)c(F)c1)NO`
Solution: 4.58

Exercise: One more compound: `Cc1cc(O[C@H](CCO)C(=O)NO)ccc1F`
Solution: 4.64

Exercise: One more compound: `O=C(COc1ccc(F)c(Cl)c1)NO`
Solution: 4.51

Exercise: One more compound: CCCCC(Sc1ccc(F)c(C)c1)C(=O)NO (stereo not drawn)
Solution: 5.60

Exercise: One more compound: `Cc1cc(OCC(=O)NO)ccc1F`
Solution: 4.53

Exercise: One more compound: `Cc1cc(O[C@H](CCN2CCC[C@@H](CN3CCCCC3)C2)C(=O)NO)ccc1F`
Solution: 5.78
